The following compounds are shown together with reported Ki values.
system under test: DDR2 (Homo sapiens, UniProt Q16832)
Construct: purchased Life Technologies
Sequence (Q16832 22-855): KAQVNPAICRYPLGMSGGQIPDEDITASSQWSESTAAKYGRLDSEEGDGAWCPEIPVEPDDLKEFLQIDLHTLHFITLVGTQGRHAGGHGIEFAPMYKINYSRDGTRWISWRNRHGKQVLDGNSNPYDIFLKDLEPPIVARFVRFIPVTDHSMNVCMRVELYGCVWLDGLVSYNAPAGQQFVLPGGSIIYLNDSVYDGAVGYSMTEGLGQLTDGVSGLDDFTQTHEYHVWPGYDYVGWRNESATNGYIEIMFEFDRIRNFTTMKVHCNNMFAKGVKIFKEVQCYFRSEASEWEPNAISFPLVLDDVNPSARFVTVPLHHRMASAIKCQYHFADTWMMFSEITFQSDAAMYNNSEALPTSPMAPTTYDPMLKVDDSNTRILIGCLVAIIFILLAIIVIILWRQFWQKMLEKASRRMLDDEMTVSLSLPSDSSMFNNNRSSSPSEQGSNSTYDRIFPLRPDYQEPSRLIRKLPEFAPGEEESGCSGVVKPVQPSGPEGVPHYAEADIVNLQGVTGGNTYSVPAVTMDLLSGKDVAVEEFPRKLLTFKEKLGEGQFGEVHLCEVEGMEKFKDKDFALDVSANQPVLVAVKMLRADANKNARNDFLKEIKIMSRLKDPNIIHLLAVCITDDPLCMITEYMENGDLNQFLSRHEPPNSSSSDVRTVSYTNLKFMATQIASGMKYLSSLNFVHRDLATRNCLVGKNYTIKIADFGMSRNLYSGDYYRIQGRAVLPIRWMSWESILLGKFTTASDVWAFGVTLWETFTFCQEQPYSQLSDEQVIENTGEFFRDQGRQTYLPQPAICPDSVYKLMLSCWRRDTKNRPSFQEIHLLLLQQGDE
test method notes: LanthaScreen Europium Kinase Binding assay, DDR2
condition context: 5 nM DDR2, 10 nM Kinase Tracer 178, 1 h at rt; Ki from IC50 by Cheng-Prusoff; read-out: Ki DDR2

Query block: Name the reported Ki value associated with the compound CN(C(=O)Nc1cncc(OC(F)(F)F)c1)C1CC2(C1)CN(C(=O)c1cnn3ccn(C)c13)C2 [Example 172]
Result block: 0.005 to 0.025 µM

Query block: Name the reported Ki value associated with the compound CN(C(=O)Nc1cncc(C(F)(F)F)c1)C1CC2(C1)CN(C(=O)c1cnn3ccc(N4CCC(F)(F)C4)cc13)C2 [Example 252]
Result block: 0.005 to 0.025 µM

Query block: Name the reported Ki value associated with the compound Cc1ccc(OC(F)(F)F)cc1NC(=O)N(C)C1CC2(C1)CN(C(=O)c1ncnc3[nH]ccc13)C2 [Example 201]
Result block: 0.005 to 0.025 µM

Query block: Name the reported Ki value associated with the compound O=C(Nc1cccc(C(F)(F)F)c1)NC1CC2(C1)CN(C(=O)c1ccnc3ccsc13)C2 [Example 137]
Result block: < 0.005 µM

Query block: Name the reported Ki value associated with the compound CN(C(=O)Nc1cc(C(F)(F)F)ccn1)C1CC2(C1)CN(C(=O)c1cnn3ccsc13)C2 [Example 217]
Result block: 0.005 to 0.025 µM
